Measured IC50, listed per entry.
Target: Gag-Pol polyprotein (Woolly monkey sarcoma virus)
Sequence (P03359 642-1310 limits assumed): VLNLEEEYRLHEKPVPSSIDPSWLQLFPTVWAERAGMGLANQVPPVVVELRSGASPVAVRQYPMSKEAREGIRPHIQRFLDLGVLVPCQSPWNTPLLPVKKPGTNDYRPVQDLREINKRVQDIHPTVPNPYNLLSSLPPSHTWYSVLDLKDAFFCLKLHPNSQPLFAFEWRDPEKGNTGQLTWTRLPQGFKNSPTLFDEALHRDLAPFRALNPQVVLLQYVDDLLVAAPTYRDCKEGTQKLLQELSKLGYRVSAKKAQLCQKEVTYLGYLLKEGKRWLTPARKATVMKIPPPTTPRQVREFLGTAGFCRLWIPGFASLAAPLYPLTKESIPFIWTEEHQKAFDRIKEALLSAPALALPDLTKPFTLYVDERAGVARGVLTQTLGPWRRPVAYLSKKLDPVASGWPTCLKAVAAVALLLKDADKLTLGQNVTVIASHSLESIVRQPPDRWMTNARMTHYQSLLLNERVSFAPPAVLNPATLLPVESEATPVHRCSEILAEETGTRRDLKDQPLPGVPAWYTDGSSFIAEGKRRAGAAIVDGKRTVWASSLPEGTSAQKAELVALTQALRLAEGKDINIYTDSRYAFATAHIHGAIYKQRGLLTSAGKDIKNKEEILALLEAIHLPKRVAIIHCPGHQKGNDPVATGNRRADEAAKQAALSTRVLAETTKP
Test: Ability to inhibit simian sarcoma virus reverse transcriptase
Conditions: read-out: IC50

Compound	Measurement Target	Unit Tag	IC50
COC1/C=C/OC2(C)Oc3c(C)c(O)c4c(O)c(c(/C=N/OCCCc5ccccc5)cc4c3C2=O)NC(=O)/C(C)=C\C=C\C(C)C(O)C(C)C(O)C(C)C(OC(C)=O)C1C (stereo not drawn)	Gag-Pol polyprotein (Woolly monkey sarcoma virus)	µM	5.6
CCCN(CCC)/N=C/c1cc2c3c4c(C)c(O)c2c(O)c1NC(=O)/C(C)=C\C=C\C(C)C(O)C(C)C(O)C(C)C(OC(C)=O)C(C)C(OC)/C=C/OC(C)(O4)C3=O (stereo not drawn)	Gag-Pol polyprotein (Woolly monkey sarcoma virus)	µM	13.5
COC1/C=C/OC2(C)Oc3c(C)c(O)c4c(O)c(c(/C=N/N5C(C)CN(Cc6ccccc6)CC5C)cc4c3C2=O)NC(=O)/C(C)=C\C=C\C(C)C(O)C(C)C(O)C(C)C(OC(C)=O)C1C (stereo not drawn)	Gag-Pol polyprotein (Woolly monkey sarcoma virus)	µM	12.5
